- test.method.notes: in vivo
- measurement.conditions: male, C57BL/6, mouse, po
quantity: AUC(0-t) (ng·h/mL)

compound: [2H][C@@](C)(NC(C)(C)C)C(=O)c1cccc(Cl)c1 [d-S-bupropion]
unit.of.measurement: ng·h/mL
measured.number: 4760

----------
- test.method.notes: in vivo
- measurement.conditions: male, C57BL/6, mouse, po, 75 mg/kg
Recorded half-life for the following compounds

compound: [2H][C@](C)(NC(C)(C)C)C(=O)c1cccc(Cl)c1 [d-R-bupropion]
half-life / h: 1.7
--
compound: [2H][C@@](C)(NC(C)(C)C)C(=O)c1cccc(Cl)c1 [d-S-bupropion]
half-life / h: 0.9

Reference for the values: patent US9732031B2
